Cited source for all entries: patent US4940714A

target: Benzodiazepine Receptor; assay: Test on Binding to Benzodiazepine Receptor (inhibition of specific binding of tritium-labeled diazepam); settings: 2 nM tritium-labeled diazepam, 0° C., 60 minutes, rat cerebral cortex receptor preparation
pKi: −log10 of the molar value.
Listed below: pKi values for each entry.
property.name: pKi

>  <molecule>
O=C(c1nc2cnc3ccccc3c2[nH]1)C1CC1

>  <target.desc>
Benzodiazepine Receptor

>  <test.result>
9.45

$$$$
>  <molecule>
O=C(c1ccc(Cl)cc1)c1nc2cnc3ccccc3c2[nH]1

>  <target.desc>
Benzodiazepine Receptor

>  <test.result>
8.08

$$$$
>  <molecule>
CCC(=O)c1nc2cnc3ccccc3c2[nH]1

>  <target.desc>
Benzodiazepine Receptor

>  <test.result>
9.39

$$$$
>  <molecule>
CCCC(=O)c1nc2cnc3ccccc3c2[nH]1

>  <target.desc>
Benzodiazepine Receptor

>  <test.result>
9.36

$$$$
>  <molecule>
O=C(c1cccnc1)c1nc2cnc3ccccc3c2[nH]1

>  <target.desc>
Benzodiazepine Receptor

>  <test.result>
8.74

$$$$
>  <molecule>
CCCCCCC(=O)c1nc2cnc3ccccc3c2[nH]1

>  <target.desc>
Benzodiazepine Receptor

>  <test.result>
8.21

$$$$
>  <molecule>
C/C=C/C(=O)c1nc2cnc3ccccc3c2[nH]1

>  <target.desc>
Benzodiazepine Receptor

>  <test.result>
7.88

$$$$
>  <molecule>
CSc1ccc(C(=O)c2nc3cnc4ccccc4c3[nH]2)cc1

>  <target.desc>
Benzodiazepine Receptor

>  <test.result>
8.49

$$$$
>  <molecule>
O=C(c1nc2cnc3ccccc3c2[nH]1)c1ccccc1F

>  <target.desc>
Benzodiazepine Receptor

>  <test.result>
8.66

$$$$
>  <molecule>
O=C(c1nc2cnc3ccc(F)cc3c2[nH]1)C1CC1

>  <target.desc>
Benzodiazepine Receptor

>  <test.result>
9.30

$$$$
>  <molecule>
Cc1cc(C(=O)c2nc3cnc4ccccc4c3[nH]2)no1

>  <target.desc>
Benzodiazepine Receptor

>  <test.result>
9.43

$$$$
>  <molecule>
O=C(c1nc2cnc3ccccc3c2[nH]1)c1ccco1

>  <target.desc>
Benzodiazepine Receptor

>  <test.result>
8.97

$$$$
>  <molecule>
CCC(C)C(=O)c1nc2cnc3ccccc3c2[nH]1 (centres unmarked)

>  <target.desc>
Benzodiazepine Receptor

>  <test.result>
8.44

$$$$
>  <molecule>
COc1ccc2c(c1)ncc1nc(C(=O)C3CC3)[nH]c12

>  <target.desc>
Benzodiazepine Receptor

>  <test.result>
8.72

$$$$
>  <molecule>
CC(C)C(=O)c1nc2cnc3ccccc3c2[nH]1

>  <target.desc>
Benzodiazepine Receptor

>  <test.result>
8.91

$$$$
>  <molecule>
O=C(c1nc2cnc3ccccc3c2[nH]1)c1cccs1

>  <target.desc>
Benzodiazepine Receptor

>  <test.result>
9.09

$$$$
>  <molecule>
CSCCC(=O)c1nc2cnc3ccccc3c2[nH]1

>  <target.desc>
Benzodiazepine Receptor

>  <test.result>
8.82

$$$$
